target: Nonstructural protein 1 (Influenza A virus, UniProt Q194T2); format: functional, Influenza A virus (A/California/07/2009(H1N1))
Sequence (Q194T2 whole entry): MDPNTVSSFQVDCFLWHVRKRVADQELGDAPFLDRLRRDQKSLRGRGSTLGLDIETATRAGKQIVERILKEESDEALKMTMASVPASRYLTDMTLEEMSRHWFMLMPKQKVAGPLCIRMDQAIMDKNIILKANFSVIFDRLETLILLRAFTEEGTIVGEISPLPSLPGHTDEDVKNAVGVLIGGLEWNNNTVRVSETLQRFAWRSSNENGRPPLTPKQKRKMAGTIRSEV
Active and inactive are the calls of the source.
Reported IC50 by item:

For orientation, consider the following solved cases.
Q: Check the records and state IC50 for CCOC(=O)C1CCCN(C2=C(NS(=O)(=O)c3ccc(Br)cc3)C(=O)c3ccccc3C2=O)C1 (centres undefined)
A: 15.9 µM (active)

Q: Check the records and state IC50 for "N=C(N)N/N=C/c1cn(-c2ccccc2)nc1-c1cccs1.O=[N+]([O-])O"
A: > 100 µM (active)

Q: Check the records and state IC50 for "O=C(Cn1cnc([N+](=O)[O-])n1)N/N=C/c1cc(Cl)ccc1O"
A: 12.3 µM (active)

Q: Check the records and state IC50 for "Cc1c(N=N/C(C#N)=C(\O)c2ccccc2)c(=O)n(-c2ccccc2)n1C"
A: 8.08 µM (active)

Q: Check the records and state IC50 for CCc1ccc2nc(O)c(C3C(C#N)=C(N)Oc4c3ccc3cccnc43)cc2c1 (centres undefined)
A: 32.6 µM (active)

Further cases:
Q: Check the records and state IC50 for O=C(NCCCn1ccnc1)C(=O)NCC(c1cccnc1)N1CCN(c2ccc(F)cc2)CC1 (centres undefined)
A: > 100 µM (active)

Q: Check the records and state IC50 for "O=C(CSc1n[nH]c(-c2ccccn2)n1)Nc1ccccc1"
A: 5.02 µM (active)

Q: Check the records and state IC50 for "Oc1ccc(/C=N/Nc2nccnc2Cl)c(O)c1"
A: 9.11 µM (active)

Q: Check the records and state IC50 for COc1ccc(N2CCN(C(=O)C3CCC(Cn4c(=S)[nH]c5ccccc5c4=O)CC3)CC2)cc1 (centres undefined)
A: > 100 µM (active)

* * *

test: cytotoxicity toward DRD oncogenic fibroblasts, dose response, cell-based, non-viral oncogenic, luminescence (AID 1934); type: functional; details: Homo sapiens
The source made the active and inactive calls.
testReadout: EC50

For orientation, consider the following solved cases.
Q: Check the records and state EC50 for "COc1ccc(-c2cc3c(=O)n(CC(=O)NCCCN4CCC(Cc5ccccc5)CC4)ncn3n2)cc1"
A: 8.08 µM (active)

Q: Check the records and state EC50 for "Cc1ccc(-c2nc(-c3ccccn3)no2)cc1"
A: 5.41 µM (active)

Q: Check the records and state EC50 for "O=[N+]([O-])c1ccc(Sc2nnnn2-c2ccccc2)nc1"
A: 9.86 µM (active)

Q: Check the records and state EC50 for "Oc1ccc(/C=N/Nc2nccnc2Cl)c(O)c1"
A: 13.4 µM (active)

Q: Check the records and state EC50 for "COc1cc(O)oc1/C=N/c1ccc(C(=O)O)cc1"
A: 10.7 µM (active)

Pending molecule:
Q: Check the records and state EC50 for "Oc1cccc2ccc(/C=C/c3ccccc3Cl)nc12"
A: 32.6 µM (active)

* * *

target: Kappa-type opioid receptor (Homo sapiens, UniProt P41145); type: functional
Sequence (P41145 whole entry): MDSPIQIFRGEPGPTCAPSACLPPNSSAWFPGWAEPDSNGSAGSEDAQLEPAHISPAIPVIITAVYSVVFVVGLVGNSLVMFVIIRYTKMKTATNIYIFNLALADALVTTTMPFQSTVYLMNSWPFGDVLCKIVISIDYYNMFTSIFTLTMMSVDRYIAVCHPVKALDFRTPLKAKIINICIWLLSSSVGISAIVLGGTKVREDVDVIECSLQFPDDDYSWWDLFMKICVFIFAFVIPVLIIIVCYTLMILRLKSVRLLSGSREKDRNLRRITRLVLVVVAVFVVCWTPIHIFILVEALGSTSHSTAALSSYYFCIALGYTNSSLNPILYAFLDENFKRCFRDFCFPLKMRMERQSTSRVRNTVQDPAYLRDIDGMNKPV
testReadout: IC50 (µM)
Respond numerically; units are µM and should not be typed.

Q: Check the records and state IC50 for "O=[N+]([O-])c1ccc2nc(Cl)nc(-c3ccccc3)c2c1"
A: 27.9

* * *

Molecular target: Endoribonuclease toxin MazF (Escherichia coli K-12)
Sequence (P0AE70 whole entry): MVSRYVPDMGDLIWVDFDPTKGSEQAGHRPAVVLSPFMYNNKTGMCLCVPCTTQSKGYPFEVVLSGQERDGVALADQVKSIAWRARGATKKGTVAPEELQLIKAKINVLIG
Assay: fluorescent RNA oligo signal without MazF, dose response, counter-screen for MazEF activator project, biochemical, fluorescence, single-stranded RNase substrate (AID 588502)
Assay type: functional
The source made the active and inactive calls.
Would you mind answering with one of these outcomes? TRUE = active, FALSE = inactive

// below: answered molecules
Q: Which outcome did this test record for the molecule "O=C1NC(=S)S/C1=C/c1ccc(OC(=O)c2ccco2)cc1" ?
A: TRUE

Q: Which outcome did this test record for the molecule "CCn1c(/C=C/c2ccc([N+](=O)[O-])o2)nc2ccccc2c1=O" ?
A: FALSE

Q: Which outcome did this test record for the molecule "C=CCN1C(=O)/C(=N/Nc2ccccc2O)c2ccccc21" ?
A: FALSE

Okay, next one:
Q: Which outcome did this test record for the molecule "CCCCN1C(=O)NC(=O)/C(=C/c2c[nH]c3ccccc23)C1=O" ?
A: FALSE

* * *

Reported AC50 by item:
tested on: INS1; assay: beta cell apoptosis inhibitors, cytokine rescue, dose response, luminescence, retest (AID 449756); type: functional, cell-based; conditions: Rattus norvegicus;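 also: cell death triggered by IL-1 beta plus TNF-alpha plus IFN-gamma mixture; protective hits raise ATP signal compared with cytokine alone wells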
Active and inactive are the calls of the source.

For orientation, consider the following solved cases.
Q: Provide measured AC50 on INS1 for "CCOC(=O)N1CCN(Cc2cc(Cl)c3cccnc3c2O)CC1" please.
A: 3.13 µM (active)

Q: Provide measured AC50 on INS1 for CCCC12C(=O)C(C)(C(c3ccccc3)=C1c1ccccc1)C1C(=O)N(c3ccc(C)cc3)C(=O)C12 (configuration not stated) please.
A: 4.16 µM (active)

Q: Provide measured AC50 on INS1 for "CCc1ccc2[nH]c3nc(N/N=C/c4ccc(O)cc4O)nnc3c2c1" please.
A: 1.58 µM (active)

Q: Provide measured AC50 on INS1 for "COCCNC(=O)CSC1=N/C(=C/c2ccc(Cl)c(Cl)c2)C(=O)N1c1ccccc1F" please.
A: 8.64 µM (active)

Q: Provide measured AC50 on INS1 for "COc1ccc(-[n+]2c(-c3ccc(Br)cc3)cn3c2CCCCC3)cc1" please.
A: 1.15 µM (active)

Further cases:
Q: Provide measured AC50 on INS1 for "Oc1ccccc1/C=N/Nc1ncc(Br)cn1" please.
A: 2.77 µM (active)

Q: Provide measured AC50 on INS1 for "CCCCC/N=C\c1c(C)nn(-c2nc3ccccc3s2)c1O" please.
A: 2.69 µM (active)

* * *

molecular target: Troponin, cardiac muscle (Homo sapiens, UniProt P19429+P45379+P63316); test: Fluorescence-based biochemical high throughput dose response assay for activators of the calcium sensitivity of cardiac Regulated Thin Filaments (RTF). [Related pubchem assays (depositor defined):AID493008, AID493018, AID504382, AID504383]; format: protein-complex assay
The source made the active and inactive calls.
Would you mind answering with one of these outcomes? active, inactive

Q: Which outcome did this test record for the molecule "N#C/C(=C/c1ccc(-c2ccccc2)o1)c1nc(-c2cccs2)cs1" ?
A: active

Q: Which outcome did this test record for the molecule "CC(=O)C(=CNc1noc(C)c1Br)C(C)=O" ?
A: inactive

Q: Which outcome did this test record for the molecule "CNc1ccccc1C(C)(C)c1cc(C)[nH]n1" ?
A: inactive

Okay, next one:
Q: Which outcome did this test record for the molecule "Cc1cc(Cl)nc(N)n1" ?
A: inactive

* * *

Biological target: Calpain-2 catalytic subunit (Sus scrofa, UniProt P43367)
Sequence (P43367 whole entry): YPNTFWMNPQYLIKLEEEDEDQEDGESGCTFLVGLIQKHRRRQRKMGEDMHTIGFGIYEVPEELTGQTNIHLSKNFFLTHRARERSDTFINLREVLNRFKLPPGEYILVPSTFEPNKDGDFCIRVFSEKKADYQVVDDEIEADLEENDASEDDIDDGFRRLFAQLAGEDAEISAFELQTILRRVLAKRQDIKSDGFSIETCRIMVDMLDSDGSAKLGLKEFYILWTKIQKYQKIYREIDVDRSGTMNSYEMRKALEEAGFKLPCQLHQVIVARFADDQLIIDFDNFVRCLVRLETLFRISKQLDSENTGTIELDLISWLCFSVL
Experiment: pig calpain II inhibitor potency, dose response, biochemical, fluorogenic peptide substrate (AID 1420)
Assay type: functional
Activity calls are given as the source filed them.
testReadout: IC50

For orientation, consider the following solved cases.
Q: Check the records and state IC50 for "O=Cc1ccc(-n2nncc2-c2ccc([N+](=O)[O-])cc2)cc1"
A: 12.6 µM (not active)

Q: Check the records and state IC50 for "O=S(=O)(c1ccc2c(c1)OCCO2)N1CCc2ccccc21"
A: > 50 µM (not active)

Q: Check the records and state IC50 for "CCOc1ccc(NC(=S)NC(=O)/C=C/c2ccc(OC)cc2)c([N+](=O)[O-])c1"
A: 17.2 µM (not active)

Q: Check the records and state IC50 for CCC1CCCCN1C(=O)c1ccc(OC2CCN(C(=O)C3CC3)CC2)cc1 (stereo unspecified)
A: > 50 µM (not active)

Q: Check the records and state IC50 for "CCOC(=O)CN1N=C(/C=C/c2ccc(C(C)C)cc2)CCC1=O"
A: 9.2 µM (active)

Q: Check the records and state IC50 for "Cc1ccc(Nc2nc(-c3ccc(S(=O)(=O)N4CCOCC4)cc3)cs2)cc1Cl"
A: 9.54 µM (active)

Q: Check the records and state IC50 for "CCCCCCCCCn1c2c(c(=N)c3c1CCC3)CCC2"
A: 7.18 µM (active)

Q: Check the records and state IC50 for "CCOC(=O)c1ccc(NC(=O)Nc2ncccc2C)cc1"
A: 12.4 µM (not active)

Q: Check the records and state IC50 for "CC(C)Cn1c(N)c(C(=O)COC(=O)c2ccccc2F)c(=O)n(C)c1=O"
A: > 50 µM (not active)

Q: Check the records and state IC50 for CCC(C)C(=O)Nc1ccc([N+](=O)[O-])cc1OC (stereo unspecified)
A: 16.1 µM (not active)

Further cases:
Q: Check the records and state IC50 for "CCOC(=O)c1c(NC(=O)CNC2CCCCC2)sc(C)c1C"
A: 6.04 µM (not active)
